Overview of recorded activity change, negative = inhibition for various compounds
Protocol: NFAT Signaling Pathway (AID 444);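 further: carbachol stimulus at about its EC50 of 1 µM final; on the % scale 0 is the no-effect control and ±100 the full control effect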
Experimental Context: Jurkat NFAT-bla M1, carbachol, beta-lactamase ratio, 5 h; at 17.2 µM (top of the series) unless noted
Results filed as inconclusive are left out. Activity calls are given as the source filed them. The call rests on the fitted dose curve; in most records, active means well fitted curve in either direction with a large enough effect (not every such curve was filed as active); inconclusive means small, poorly fitted or top-dose-only effect, or another doubt; inactive means flat fitted curve, though single readings scatter.

Guide cases for activity change, negative = inhibition, answers given:
CCOC(=O)N1CCN(c2ncnc3c2cnn3-c2ccc(OC)cc2)CC1 :: 10.2% (inactive)
Cc1cc(-c2cc(-c3ccc(Cl)cc3)nc(N)c2C#N)co1 :: 14.5% (inactive)

In the following, a different compound is considered.
Hello, please tell me recorded activity change, negative = inhibition for this one: CCCCC(=O)NC(Nc1ccc(C)cn1)(C(=O)OCC)C(F)(F)F (stereo not drawn)
-3.17% (inactive)

###

System: PC49
Protocol: qHTS profiling for inhibitors of Plasmodium falciparum proliferation (AID 504749); further: nearly all actives have a fitted effect of over 60% in size
Experimental Context: P. falciparum in erythrocytes, SYBR Green DNA, 72 h; series mostly up to 28.7 µM
Records with an inconclusive call do not appear. Calls of active or inactive are those of the source. The call rests on the fitted dose curve; in most records, active means well fitted inhibition curve with a large enough effect; inconclusive means small, poorly fitted or top-dose-only effect; inactive means flat fitted curve, though single readings scatter.
Parameter call: string, one of active, inactive

CCN(CC)C(=O)[C@@]1(c2ccccc2)C[C@@H]1CN :: inactive
CNC1C(O)C(OC2C(N)CC(N)C(OC3OC(CN)=CCC3N)C2O)OCC1(C)O (centres undefined) :: inactive
CCC(C(=O)O)C1OC(C(C)C(O)C(C)C(=O)C(CC)C2OC3(C=CC(O)C4(CCC(C)(C5CCC(O)(CC)C(C)O5)O4)O3)C(C)CC2C)C(C)CC1C (centres undefined) :: active

Below: the item to evaluate.
Outcome logged for C[C@@H]1CC2C3CCC4=CC(=O)C=C[C@]4(C)[C@@]3(F)[C@@H](O)C[C@]2(C)[C@@]1(O)C(=O)COC(=O)c1cccc(S(=O)(=O)O)c1 (some centres undefined) in this assay:
inactive

###

Protocol: AP1 Signaling Pathway (AID 357);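 further: ME-180 reporter cells stimulated with EGF at its EC50 level; on the % scale 0 is the no-effect control and ±100 the full control effect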
Experimental Context: ME-180 (cervical carcinoma) AP-1-bla reporter, EGF-induced, beta-lactamase ratio, 5 h; at 17.2 µM (top of the series) unless noted
Procedure: NCGC Assay Overview: Activator protein-1 (AP-1), a transcription factor, plays an important role in tumor genesis by regulating genes involved in cell proliferation, differentiation, apoptosis, and angiogenesis. AP-1 activity is induced by a complex network of signaling pathways that involves extracellular signals, such as growth factors. […] Library compounds were measured for their ability to modulate positively or negatively the action of EC50 EGF on reporter gene activity. […]
Results filed as inconclusive are left out. Activity calls are given as the source filed them. Calls follow the shape of the dose curve; as a rule, active = well fitted curve in either direction with a large enough effect (not every such curve was filed as active); inconclusive = small, poorly fitted or top-dose-only effect, or another doubt; inactive = flat fitted curve, though single readings scatter.
Parameter call: string, one of active, inactive

// known answers, use as guide
N#CC1=C(N)OC2=C(C(=O)CCC2)C1CCc1ccccc1 (stereo not drawn) :: inactive
CC(C)COc1ccc(C(=O)NC(CC(C)C)C(=O)O)cc1 (stereo not drawn) :: inactive
COc1ccccc1NC(=O)C1=C(C)NC(SCC(=O)c2ccc(C)cc2)=C(C#N)C1c1ccco1 (stereo not drawn) :: inactive
O=C(O)C(O)c1ccco1 (stereo not drawn) :: inactive
CCCCc1nc2n[nH]c(N)c2c2c1CCCC2 :: inactive
COC(=O)/C(C#N)=C1/SC=C(C)N1c1ccccc1 :: inactive
Cc1ccc(C2/C(=C(\O)c3ccc4c(c3)OCCO4)C(=O)C(=O)N2CCCN(C)C)o1 (stereo not drawn) :: inactive
Cc1cc(=O)oc(C)c1C(=O)N1CCN(C)CC1 :: inactive
O=C(Nc1ccc2c(c1)OCO2)c1cncc(Br)c1 :: inactive
COc1cc(/C=N/n2nnnc2N)ccc1O :: inactive

Outcome logged for N=C1[C@@H](O)[C@]2(I)c3ccccc3N3C(=N)[C@H](O)[C@@H]4c5ccccc5N1[C@@H]4[C@@H]32 in this assay:
inactive

Outcome logged for Cc1ccc(S(=O)(=O)N2CCC(N3CCCCCC3)CC2)cc1 in this assay:
inactive

Outcome logged for C/C(NC(=O)c1ccccc1F)=C1\C(=O)C[C@@H]2[C@H]1C2(C)C in this assay:
inactive

Outcome logged for COc1ccccc1C(CC(=O)Nc1nccs1)c1ccco1 (stereo not drawn) in this assay:
inactive

Outcome logged for Cc1cccn2c(=O)c3cc(C(N)=S)c(=N)n(CCCOC(C)C)c3nc12 in this assay:
inactive

Outcome logged for CC(C)Cc1nc2n[nH]c(N)c2c2c1CCC2 in this assay:
inactive

###

Test system: TAB109
Protocol: qHTS profiling for inhibitors of Plasmodium falciparum proliferation (AID 504749); further: nearly all actives have a fitted effect of over 60% in size
Experimental Context: P. falciparum in erythrocytes, SYBR Green DNA, 72 h; series mostly up to 28.7 µM
Inconclusive results are not listed. Activity calls are given as the source filed them. Calls come from the whole dose curve; as a rule, active = well fitted inhibition curve with a large enough effect; inconclusive = small, poorly fitted or top-dose-only effect; inactive = flat fitted curve, though single readings scatter.
Parameter call: string, one of true = active, false = inactive

// known answers, use as guide
COc1cc(/C=C2\CCC/C(=C\c3ccc(O)c(OC)c3)C2=O)ccc1O :: true
CCC1OC(=O)C[C@@H](O)[C@H](C)[C@@H](OC2OC(C)CC(N(C)C)C2O)[C@@H](CC=O)C[C@@H](C)C(=O)/C=C/[C@]2(C)OC2C1C (stereo partly specified) :: true
CC12C=CC(=O)C=C1[C@@H](F)CC1C2C(O)CC2(C)C1CC[C@]2(O)C(=O)CO (stereo partly specified) :: false

Outcome logged for NCCCCC(N)C(=O)O (stereo unspecified) in this assay:
false

Outcome logged for C#C[C@]1(O)CC[C@H]2[C@H]3[C@H](CC[C@@]21C)C1=C(CC(=O)CC1)C[C@@H]3C in this assay:
false

Outcome logged for Cn1cc(C(=O)[C@@H]2CCc3[nH]cnc3C2)c2ccccc21 in this assay:
false

Outcome logged for COC(c1ccccc1)(c1ccccc1)C(Oc1nc(C)cc(C)n1)C(=O)O (stereo unspecified) in this assay:
false

Outcome logged for Cc1onc(-c2c(F)cccc2Cl)c1C(=O)NC1C(=O)N2C1SC(C)(C)C2C(=O)O (stereo unspecified) in this assay:
false

Outcome logged for CC(=O)OCC(=O)[C@@]1(O)CCC2C3CCC4=CC(=O)C=CC4(C)C3C(O)C[C@]21C (stereo partly specified) in this assay:
false

Outcome logged for OC[C@@H]1O[C@](CO)(O[C@H]2O[C@H](CO)[C@@H](O)[C@H](O)[C@H]2O)[C@H](O)[C@H]1O in this assay:
false

Outcome logged for Cc1ccc(S(=O)(=O)NC(=O)NC(C)Cc2ccccc2)cc1 (stereo unspecified) in this assay:
false

Outcome logged for C/C=C1/NN(CCCN2CCN(c3cccc(Cl)c3)CC2)C(=O)N1CCOc1ccccc1 in this assay:
false

Outcome logged for CN(C)CC[C@@](O)(c1ccccc1)c1ccccc1Cl in this assay:
true

Outcome logged for C=CC1CN2CCC1CC2[C@@H](O)c1ccnc2ccc(OC)cc12 (stereo partly specified) in this assay:
true

Outcome logged for O=C(O)C(O)c1ccccc1 (stereo unspecified) in this assay:
false

Outcome logged for CC(=O)CC(c1ccccc1)C1C(=O)Oc2ccccc2C1=O (stereo unspecified) in this assay:
false

###

Protocol: Cellular Toxicity (caspase-3) HUV-EC-C (AID 656);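 further: cells exposed to compound for 16 h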;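 on caspase-3 activation: 0% = DMSO basal and 100% = 100 µM tamoxifen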
Experimental Context: HUV-EC-C cells, caspase-3 activation (apoptosis); series mostly up to 92.2 µM
Active and inactive are the calls of the source. The call rests on the fitted dose curve; in most records, active means well fitted curve in the direction sought with a large enough effect; inconclusive means small, poorly fitted or top-dose-only effect, or another doubt; inactive means no such curve, though single readings can be large or run the other way.
Parameter call: string, one of yes (1) = active, no (0) = inactive

CN1[C@H]2CC(OC(=O)[C@H](CO)c3ccccc3)C[C@H]1[C@H]1O[C@H]12 (some centres undefined) :: no (0)
O=C(/C=C/c1ccc(O)c(O)c1)OC1C[C@](O)(C(=O)O)C[C@@H](O)[C@H]1O (some centres undefined) :: no (0)
Cc1cccc(O)c1C :: no (0)
O=C1OC2(c3cc(Br)c(O)c(Br)c3Oc3c2cc(Br)c(O)c3Br)c2c(Cl)c(Cl)c(Cl)c(Cl)c21 :: no (0)
O=[N+]([O-])c1cc([N+](=O)[O-])c2ccc(S(=O)(=O)O)cc2c1O :: no (0)

Outcome logged for C=CC(=O)OCCOCCOC(=O)C=C in this assay:
no (0)

Outcome logged for Oc1ccc2cc(SSc3ccc4cc(O)ccc4c3)ccc2c1 in this assay:
no (0)

Outcome logged for Cc1cc(O)c(C(C)(C)C)cc1Sc1cc(C(C)(C)C)c(O)cc1C in this assay:
yes (1)

Outcome logged for CNc1ccc(O)cc1 in this assay:
no (0)

###

Overview of recorded activity change, negative = inhibition for various compounds
Protocol: NFAT Signaling Pathway (AID 444);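 further: carbachol stimulus at about its EC50 of 1 µM final; on the % scale 0 is the no-effect control and ±100 the full control effect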
Experimental Context: Jurkat NFAT-bla M1, carbachol, beta-lactamase ratio, 5 h; at 17.2 µM (top of the series) unless noted
Inconclusive results are not listed. The source made the active and inactive calls. The call rests on the fitted dose curve; in most records, active means well fitted curve in either direction with a large enough effect (not every such curve was filed as active); inconclusive means small, poorly fitted or top-dose-only effect, or another doubt; inactive means flat fitted curve, though single readings scatter.

Guide cases for activity change, negative = inhibition, answers given:
N[C@H](Cc1cccc(-c2ccccc2CP(=O)(O)O)c1)C(=O)O :: 12.7% [at 38 µM] (inactive)
COc1ccc[nH]c1=O :: -4.63% (inactive)

Hello, please tell me recorded activity change, negative = inhibition for this one: O=C(O)c1c[nH]c2ccc(S(=O)(=O)N3CCOCC3)cc12
-7.03% (inactive)

Hello, please tell me recorded activity change, negative = inhibition for this one: CCOC(=O)c1c(C)n(C)c2ccc(OC)c(NC(=O)c3cccs3)c12
5.2% (inactive)

Hello, please tell me recorded activity change, negative = inhibition for this one: COc1ccc(-c2nn3c(C4CCCCC4)nnc3s2)cc1OC
-3.44% (inactive)

Hello, please tell me recorded activity change, negative = inhibition for this one: Oc1cc(O)cc(/C=C\c2ccc(O)c(O)c2)c1
5.18% [at 38 µM] (inactive)

Hello, please tell me recorded activity change, negative = inhibition for this one: COc1ccc(-c2oc3ncn4nc(Cc5ccccc5)nc4c3c2-c2ccc(OC)cc2)cc1
-13% (inactive)
